System: DMS 273 small cell lung
Assay: NCI tumour cell line growth inhibition, 48 h
observed property: TGI

# molecule Nc1nncc2c1ccn2C1OC(CO)C(O)C1O (stereo not drawn) ; its TGI = > 100 µM

# molecule `CC1(C)CC(=O)C2=C(C1)S/C(=C1/SC3=C(S1)C(=O)CC(C)(C)C3)S2` ; its TGI = > 251 µM

# molecule C[C@]12CCc3nonc3C1CC[C@@H]1C2CC[C@]2(C)NC(=O)CCC12 (stereo partly drawn) ; its TGI = > 100 µM

###

Test system: MOLT-4 leukemia
Test: NCI tumour cell line growth inhibition, 48 h; in the data active means GI50 below about 0.43 µM; inactive means the rest
Respond only with the outcome that fits, drawn from y = active, n = inactive

Just curious, what result did `N#Cc1ccc(N2Cc3ccccc3OC3=C2C(=O)c2c(O)ccc(O)c2C3=O)cc1` get here?
y

Just curious, what result did `O=C(CN1CCN(c2ccc(Cl)cc2)CC1)N1CCN(c2nnc(-c3ccc(Cl)cc3)c(-c3ccc(Cl)cc3)n2)CC1` get here?
n

Just curious, what result did `CN(N=O)C(=O)N[C@@H](C=O)[C@@H](O)[C@H](O)[C@H](O)CO` get here?
n

Just curious, what result did `CN(C)CCOc1ccc(/C(=C(/CCCl)c2ccccc2)c2ccccc2)cc1` get here?
n

Just curious, what result did `O=C(Nc1ccc(Cl)cc1F)c1cc(I)ccc1O` get here?
n

Just curious, what result did `COc1ccc(-c2nn(-c3cccc(NC(=O)c4ccc5c(c4)OCCO5)c3)cc2-c2ccncc2)cc1Cl` get here?
n

Just curious, what result did `CC/C(=C(/CC)c1ccc([O-])cc1)c1ccc([O-])cc1.CC/C(=C(\CC)c1ccc([O-])cc1)c1ccc([O-])cc1.O=C([CH-]C(=O)c1ccccc1)c1ccccc1.O=C([CH-]C(=O)c1ccccc1)c1ccccc1.O=C([CH-]C(=O)c1ccccc1)c1ccccc1.O=C([CH-]C(=O)c1ccccc1)c1ccccc1.[Ti+4].[Ti+4]` get here?
n

Just curious, what result did `O=C(CF)N(O)c1ccc(/C=C/c2ccccc2)cc1` get here?
n

Just curious, what result did `O=C(c1ccco1)c1nc2cc(F)ccc2[n+]([O-])c1C(F)(F)F` get here?
n

Just curious, what result did Cc1noc(C)c1-c1cc(O)cc(C(O)c2ccccc2)c1 (configuration not stated) get here?
n

Just curious, what result did `CC(=O)c1cc2c(cc1Nc1c3ccccc3nc3occ(Cl)c13)OCO2` get here?
y

Just curious, what result did `COC(=O)c1ccc(NC(=O)Nc2ccc3oc(=O)c4ccccc4c3c2)cc1` get here?
n

###

Test system: OVCAR-5 ovarian
Assay: NCI tumour cell line growth inhibition, 48 h
observed property: TGI

# molecule `O=C(O)[C@@H]1CCC(=O)N1C(c1ccc2c(c1)OCO2)c1ccc2c(c1)OCO2` ; its TGI = > 100 µM

# molecule `COc1cc(-c2cc(=O)c3c(O)c(OC)c(OC)c(OC)c3o2)ccc1O` ; its TGI = > 100 µM

# molecule `O=C1Nc2ccccc2S/C1=C\c1ccccc1C(F)(F)F` ; its TGI = > 100 µM

# molecule `CCOC(=O)Nc1cc2c(c(N)n1)N=C(c1ccccc1)[C@H](C)N2` ; its TGI = 53.9 µM

# molecule `CC/C(=C(/CC)c1ccc([O-])cc1)c1ccc([O-])cc1.CC/C(=C(\CC)c1ccc([O-])cc1)c1ccc([O-])cc1.O=C([CH-]C(=O)c1ccccc1)c1ccccc1.O=C([CH-]C(=O)c1ccccc1)c1ccccc1.O=C([CH-]C(=O)c1ccccc1)c1ccccc1.O=C([CH-]C(=O)c1ccccc1)c1ccccc1.[Ti+4].[Ti+4]` ; its TGI = > 100 µM

# molecule `CN(C)CCNC(=O)Cn1cc([N+](=O)[O-])c(=O)c2ccccc21` ; its TGI = > 100 µM

# molecule `COc1ccc(-c2nn(-c3cccc(NC(=O)c4ccc5c(c4)OCCO5)c3)cc2-c2ccncc2)cc1Cl` ; its TGI = 29.8 µM

# molecule C=C(C)C1CC2(C)C(C)CC(OC(=O)/C(C)=C\C)CC2C(OC(=O)/C(C)=C\C)C1O (configuration not stated) ; its TGI = > 100 µM

# molecule `O=C(c1ccco1)c1nc2cc(F)ccc2[n+]([O-])c1C(F)(F)F` ; its TGI = 90.6 µM

# molecule `COCc1cc2c(cc1/C(=C/[N+](=O)[O-])CS(=O)(=O)c1ccccc1)OCO2` ; its TGI = > 100 µM

# molecule `Cc1nc2ccccc2c(=O)n1NC(=O)c1ccc([N+](=O)[O-])cc1` ; its TGI = > 100 µM

# molecule N#C/C(=C\c1ccc(O)c(O)c1)C(=O)NC1CCC(CC2CCC(NC(=O)/C(C#N)=C/c3ccc(O)c(O)c3)CC2)CC1 (configuration not stated) ; its TGI = 4.09 µM

# molecule c1ccc(C2SCc3nc4cc5ccccc5cc4n32)cc1 (configuration not stated) ; its TGI = > 100 µM

# molecule `Cc1cnc(/C=N\NC(N)=S)c2cccc(N)c12` ; its TGI = > 100 µM

# molecule `CC(=O)OCC(=O)O[C@@H]1C[C@]2(C(C)C)O[C@@]1(C)[C@@H]1CC[C@@H](C)[C@H]1[C@@H]2OC(=O)/C=C/c1ccccc1` ; its TGI = 33.6 µM

# molecule `O=C(O)CCSCc1ccc(I)cc1` ; its TGI = > 100 µM

# molecule `CCOC(=O)C1=C(O)CSC1=Nc1ccccc1` ; its TGI = > 100 µM

# molecule C/C1=C/C2=CC(C)C[C@@H]2C(=O)[C@]2(C)C(=O)CC(C)(C)[C@H]2CC1=O (some centres not stated) ; its TGI = > 50 µM

# molecule `CCOC(=O)[C@H]1Nc2c(cccc2[N+](=O)[O-])[C@H]2OCC[C@@H]12` ; its TGI = > 100 µM

# molecule `Cc1ccc(Nc2n[nH]c(=S)s2)cc1` ; its TGI = > 100 µM

# molecule C=CCCCC1SC2=C(CC)CCCN2C1=O (configuration not stated) ; its TGI = > 100 µM

# molecule COC(=O)C1=C(C(=O)OC)C23CC1C1C(C(=O)OC)=C(C(=O)OC)C12C1C=CC3C2C(=O)OC(=O)C21 (configuration not stated) ; its TGI = > 100 µM

# molecule `N#Cc1c(NCCc2ccc(F)cc2)c2ccccc2n2c1nc1ccccc12` ; its TGI = > 100 µM

# molecule `C=CCC(CC=O)(C(=O)OCC)C(=O)OCC` ; its TGI = > 100 µM

# molecule `CCOC(=O)c1c2c(n(Cc3ccccc3)c1C)-c1ccccc1C(=O)C2=O` ; its TGI = 40.4 µM

# molecule `Cc1ccc(S(=O)(=O)/N=C(\N)N(C)N=O)cc1` ; its TGI = > 100 µM

# molecule CSC1=NC(C(N)=O)C(N)N1C (configuration not stated) ; its TGI = > 100 µM

# molecule c1ccc(-c2cc(C3CO3)c3ccccc3n2)cc1 (configuration not stated) ; its TGI = 40.5 µM

# molecule O=C(O)c1ccccc1CC1Cc2ccc3c(c2C1=O)CCC3 (configuration not stated) ; its TGI = > 100 µM

# molecule `Cn1nnnc1N/N=C/c1ccccc1` ; its TGI = > 10 µM

# molecule `CC(C)(C)CC(C)(C)c1cc2c(O)c(c1)Cc1cc(C(C)(C)CC(C)(C)C)cc(c1O)Cc1cc(C(C)(C)CC(C)(C)C)cc(c1O)Cc1cc(C(C)(C)CC(C)(C)C)cc(c1O)Cc1cc(C(C)(C)CC(C)(C)C)cc(c1O)Cc1cc(C(C)(C)CC(C)(C)C)cc(c1O)C2` ; its TGI = > 100 µM

# molecule `CCCCCC(=O)Nc1nc[nH]c1C(N)=O` ; its TGI = > 100 µM

###

System: HCT-116 colon
Experiment: NCI tumour cell line growth inhibition, 48 h
observed property: TGI

Kindly note: HCT-116 colon, `O=C(Nc1ccc(CN2CCOCC2)cc1)c1[nH]ncc1Nc1ncnc2sccc12` , TGI value reported: 12.3 µM

Kindly note: HCT-116 colon, C=CC(C)(O)/C=C/C=C(\C)C(CC1OC1(C)C)OC(=O)/C(C)=C\C (centres undefined) , TGI value reported: > 100 µM

Kindly note: HCT-116 colon, O1C2C1C1OC1C1OC1C1OC21 (centres undefined) , TGI value reported: > 100 µM

Kindly note: HCT-116 colon, `O=C(O)c1ccc([N+]2=Cn3c(nc4ccccc43)C2)cc1` , TGI value reported: > 100 µM

Kindly note: HCT-116 colon, `CCOC(=O)C(C)(C(=O)OCC)/C(Cl)=C\Cl` , TGI value reported: > 100 µM

Kindly note: HCT-116 colon, `O=C1Nc2ccccc2S/C1=C\c1ccccc1C(F)(F)F` , TGI value reported: > 100 µM

Kindly note: HCT-116 colon, `O=C(c1ccccc1)c1ccc(OCCOc2ccc(Nc3ccccc3)cc2)cc1` , TGI value reported: > 100 µM

Kindly note: HCT-116 colon, `CC(C)OC(=O)C1=C(O)c2ccccc2S(=O)(=O)N1` , TGI value reported: > 100 µM

Kindly note: HCT-116 colon, `COCc1cc2c(cc1/C(=C/[N+](=O)[O-])CS(=O)(=O)c1ccccc1)OCO2` , TGI value reported: > 100 µM

Kindly note: HCT-116 colon, `COc1ccc2c(c1)c1c(n2CCN(C)C)-c2cccc(OC)c2CC1` , TGI value reported: 50.3 µM

Kindly note: HCT-116 colon, CCOC(=O)C(NCc1ccc2c(c1)OCO2)(NC(=O)c1ccccc1)C(F)(F)F (centres undefined) , TGI value reported: > 100 µM

Kindly note: HCT-116 colon, `O=C(O)[C@@H]1CCC(=O)N1C(c1ccc2c(c1)OCO2)c1ccc2c(c1)OCO2` , TGI value reported: > 100 µM

Kindly note: HCT-116 colon, `O=C(O)CCC(=O)c1ccc2ccc3cccc4ccc1c2c34` , TGI value reported: > 100 µM

Kindly note: HCT-116 colon, CCOP(=O)(OCC)C(N)Cc1ccc(OC)c(OC)c1 (centres undefined) , TGI value reported: > 100 µM

Kindly note: HCT-116 colon, `CCOC(=O)/C=C/c1cc2cc(-c3csc4ccccc34)ccc2[nH]1` , TGI value reported: 31.4 µM

Kindly note: HCT-116 colon, CCSC1(SCC)CC(Cc2ccc(OC)cc2)N(C=NC(C)(C)C)C1 (centres undefined) , TGI value reported: 92.8 µM

Kindly note: HCT-116 colon, `O=C(CCCN1CCC2(CC1)NC(=O)c1ccccc1O2)c1ccc(F)cc1` , TGI value reported: > 100 µM

Kindly note: HCT-116 colon, `Cc1nc2ccccc2c(=O)n1NC(=O)c1ccc([N+](=O)[O-])cc1` , TGI value reported: > 100 µM

Kindly note: HCT-116 colon, `C/C(=N\Oc1cc(Cl)ncn1)c1ccccn1` , TGI value reported: > 100 µM
